Just for reference, ChEMBL document CHEMBL1921678 is where these values come from.

Test: Half life in mouse at 10 mg/kg, po
Assay type: ADME, organism-based
Parameters: dose 10 mg/kg, route oral
Conditions: in vivo
resultType: half-life (h)
Response body: numeric value in h, unit text excluded.

Item: NC(=O)C(NC1CCC(c2c[nH]c3ccccc23)CC1)C1CCN(C(=O)/C=C/c2cc(F)cc(F)c2)CC1 (racemic) | half-life: 2.4

====

Test: Clearance in mouse at 2 mg/kg, iv
Type: ADME, organism-based
Design: dose 2 mg/kg, route intravenous
Settings: in vivo
resultType: clearance (mL/min/kg)
Response body: numeric value in mL/min/kg, unit text excluded.

Item: NC(=O)C(NC1CCC(c2c[nH]c3ccccc23)CC1)C1CCN(C(=O)/C=C/c2cc(F)cc(F)c2)CC1 (racemic) | clearance: 31

====

Target: C-C chemokine receptor type 2 (Homo sapiens, UniProt P41597)
Sequence (P41597 whole entry): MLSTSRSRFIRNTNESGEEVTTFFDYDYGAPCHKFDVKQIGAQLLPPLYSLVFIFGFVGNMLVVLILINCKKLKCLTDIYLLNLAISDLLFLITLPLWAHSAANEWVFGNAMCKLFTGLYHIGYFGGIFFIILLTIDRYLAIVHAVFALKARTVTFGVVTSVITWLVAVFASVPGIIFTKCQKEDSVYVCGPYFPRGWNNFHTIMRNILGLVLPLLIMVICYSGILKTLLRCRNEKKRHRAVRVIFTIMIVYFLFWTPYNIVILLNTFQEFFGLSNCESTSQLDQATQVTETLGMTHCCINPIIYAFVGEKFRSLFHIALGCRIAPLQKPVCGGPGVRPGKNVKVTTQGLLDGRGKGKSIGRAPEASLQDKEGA
Assay: Antagonist activity at human CCR2
Below, each entry is listed with its recorded pIC50.
pIC50 here: minus log base 10 of the concentration, concentration in moles per litre.

Below: 4 compounds and their reported pIC50.
compound	pIC50
NC(=O)C(NC1Cc2ccccc2C1)C1CCN(C(=O)/C=C/c2cc(F)c(F)c(F)c2)CC1 (stereo unspecified)	5.85
NC(=O)C(NC1CCC(c2ccccc2)C1)C1CCN(C(=O)/C=C/c2cc(F)c(F)c(F)c2)CC1 (stereo unspecified)	5.89
NC(=O)C(NC1CCC(C2CNc3ccccc32)CC1)C1CCN(C(=O)/C=C/c2cc(F)c(F)c(F)c2)CC1 (stereo unspecified)	6.02
NC(=O)C(NC1CCC(c2c[nH]c3ccccc23)CC1)C1CCN(C(=O)/C=C/c2ccc(F)cc2)CC1 (stereo unspecified)	7.44

Item: NC(=O)C(NC1CCC(c2c[nH]c3cnccc23)CC1)C1CCN(C(=O)/C=C/c2cc(F)c(F)c(F)c2)CC1 (stereo unspecified) | pIC50: 5.66

====

Molecular target: Voltage-gated inwardly rectifying potassium channel KCNH2 (Homo sapiens)
Sequence (Q12809 whole entry): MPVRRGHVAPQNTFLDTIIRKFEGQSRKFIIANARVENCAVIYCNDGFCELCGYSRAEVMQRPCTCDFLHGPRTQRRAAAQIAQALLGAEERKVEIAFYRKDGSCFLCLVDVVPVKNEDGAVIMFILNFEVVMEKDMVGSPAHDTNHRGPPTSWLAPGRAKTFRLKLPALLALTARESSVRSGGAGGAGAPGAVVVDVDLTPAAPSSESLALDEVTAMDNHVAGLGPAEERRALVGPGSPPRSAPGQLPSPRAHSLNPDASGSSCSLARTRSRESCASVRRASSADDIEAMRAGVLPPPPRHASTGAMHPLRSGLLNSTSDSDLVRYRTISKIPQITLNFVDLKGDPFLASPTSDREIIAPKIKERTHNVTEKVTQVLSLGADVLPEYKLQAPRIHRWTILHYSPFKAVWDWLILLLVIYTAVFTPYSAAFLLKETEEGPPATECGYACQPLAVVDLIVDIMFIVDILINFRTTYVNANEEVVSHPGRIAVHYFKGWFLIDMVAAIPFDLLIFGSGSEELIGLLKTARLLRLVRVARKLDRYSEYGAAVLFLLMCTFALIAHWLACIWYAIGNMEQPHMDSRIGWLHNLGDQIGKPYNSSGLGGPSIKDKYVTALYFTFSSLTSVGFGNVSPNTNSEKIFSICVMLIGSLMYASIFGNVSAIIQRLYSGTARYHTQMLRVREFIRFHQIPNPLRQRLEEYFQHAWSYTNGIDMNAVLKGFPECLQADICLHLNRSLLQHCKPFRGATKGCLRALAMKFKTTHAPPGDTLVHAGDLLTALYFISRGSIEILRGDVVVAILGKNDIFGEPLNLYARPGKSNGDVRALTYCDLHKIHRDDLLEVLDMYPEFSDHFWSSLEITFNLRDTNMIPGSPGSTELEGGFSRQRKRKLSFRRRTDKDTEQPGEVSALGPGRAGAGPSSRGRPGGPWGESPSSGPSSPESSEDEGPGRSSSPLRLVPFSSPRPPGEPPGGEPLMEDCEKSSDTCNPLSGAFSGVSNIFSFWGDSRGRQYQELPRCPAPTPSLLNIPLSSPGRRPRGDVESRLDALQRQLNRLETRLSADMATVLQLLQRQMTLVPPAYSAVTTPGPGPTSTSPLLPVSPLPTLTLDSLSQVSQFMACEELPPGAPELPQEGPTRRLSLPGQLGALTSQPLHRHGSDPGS
Test: Inhibition of human ERG
Below, each entry is listed with its recorded INH.

Below: 3 compounds and their reported INH.
compound	INH
NC(=O)C(NC1CCC(c2c[nH]c3ccccc23)CC1)C1CCN(C(=O)/C=C/c2ccccc2F)CC1 (centres undefined)	4.128 µM
NC(=O)C(NC1CCC(c2c[nH]c3ccccc23)CC1)C1CCN(C(=O)/C=C/c2ccc(C(F)(F)F)cc2)CC1 (centres undefined)	1.08 µM
CNC(=O)C(NC1CCC(c2c[nH]c3ccccc23)CC1)C1CCN(C(=O)/C=C/c2cc(F)c(F)c(F)c2)CC1 (centres undefined)	5.4 µM

Now for another entry.
Item: O=C(O)C(NC1CCC(c2c[nH]c3ccccc23)CC1)C1CCN(C(=O)/C=C/c2cc(F)c(F)c(F)c2)CC1 (centres undefined) | INH: 31 µM

====

Target: C-C chemokine receptor type 2 (Homo sapiens, UniProt P41597)
Test: Antagonist activity at human CCR2
pIC50: −log10 of the molar value.
Quick rule for you: pIC50 at 7 or higher means condition met, lower means condition not met.

molecule	labelValue
NC(=O)C(NC1CCC(c2c[nH]c3ccccc23)CC1)C1CCN(C(=O)/C=C/c2ccc(F)c(F)c2)CC1 (stereo not drawn)	condition met
NC(=O)C(NC1CCP(=O)(c2ccccc2)CC1)C1CCN(C(=O)/C=C/c2cc(F)c(F)c(F)c2)CC1 (stereo not drawn)	condition not met
CS(=O)(=O)c1ccc(/C=C/C(=O)N2CCC(C(NC3CCC(c4c[nH]c5ccccc45)CC3)C(N)=O)CC2)cc1 (stereo not drawn)	condition not met
NC(=O)C(NC1CCc2ccccc21)C1CCN(C(=O)/C=C/c2cc(F)c(F)c(F)c2)CC1 (stereo not drawn)	condition not met
O=C(/C=C/c1cc(F)c(F)c(F)c1)N1CCC(CNC2CCC(c3c[nH]c4ccccc34)CC2)CC1 (stereo not drawn)	condition not met

Query block: Identify whether the reported pIC50 of the following molecule is 7 or greater: NC(=O)C(NC1CCC(c2c[nH]c3ccccc23)CC1)C1CN(C(=O)/C=C/c2cc(F)c(F)c(F)c2)C1 (stereo not drawn)
Result block: condition not met

Query block: Identify whether the reported pIC50 of the following molecule is 7 or greater: NC(=O)C(NC1CCC(c2c[nH]c3ccccc23)CC1)C1CCN(C(=O)CCc2ccccc2)CC1 (stereo not drawn)
Result block: condition not met

Query block: Identify whether the reported pIC50 of the following molecule is 7 or greater: O=C(O)C(NC1CCC(c2c[nH]c3ccccc23)CC1)C1CCN(C(=O)/C=C/c2cc(F)c(F)c(F)c2)CC1 (stereo not drawn)
Result block: condition met
